inhibition values by entry
# measured-on: N-glycosylase/DNA lyase (Homo sapiens) (UniProt O15527)
# Sequence (O15527 whole entry): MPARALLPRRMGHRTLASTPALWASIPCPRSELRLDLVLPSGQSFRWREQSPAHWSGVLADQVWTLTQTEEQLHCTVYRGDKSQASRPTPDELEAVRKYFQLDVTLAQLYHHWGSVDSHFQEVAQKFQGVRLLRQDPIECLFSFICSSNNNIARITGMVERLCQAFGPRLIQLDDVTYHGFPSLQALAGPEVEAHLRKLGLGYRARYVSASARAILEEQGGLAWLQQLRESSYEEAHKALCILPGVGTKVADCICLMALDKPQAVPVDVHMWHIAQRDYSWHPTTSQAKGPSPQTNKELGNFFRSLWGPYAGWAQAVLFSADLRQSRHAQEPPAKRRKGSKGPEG
# condition-context: Compound Concentration 10.0 uM, Hit No
# Description: Inhibition of OGG1 by quantifying inhibition of OGG1-mediated cleavage and dissociation of quenched duplex DNA oligonucleotides, measured as fluorescence at 594 nm. To generate a functional strand incision and increase turn-over this assay is coupled to APE1.
Express it in %; write the number only.

Some solved cases for reference:
> print(dat)
                                   compound                               measured.on  units.of.measure  result.value
1  CCOc1ccn(-c2ccc(F)cc2)c(=O)c1C(=O)Nc1ccc(Oc2ccnc(N)c2Cl)c(F)c1  N-glycosylase/DNA lyase (Homo sapiens) (UniProt O15527)                 %         -7.89
2  CCOC(=O)N1CCC(c2cc(O)n3nc(C)c(-c4ccc(F)cc4)c3n2)CC1  N-glycosylase/DNA lyase (Homo sapiens) (UniProt O15527)                 %         -3.67
3  Cn1nc(C(=O)NCc2ccc(C(=O)O)cc2)cc1-c1ccc2[nH]ccc2c1  N-glycosylase/DNA lyase (Homo sapiens) (UniProt O15527)                 %          0.23

Measured inhibition of `CCC(=O)OCC(=O)[C@@]1(OC(=O)CC)[C@@H](C)C[C@H]2[C@@H]3CCC4=CC(=O)C=C[C@]4(C)[C@@]3(Cl)[C@@H](O)C[C@@]21C` : -5.93

Measured inhibition of `Cc1cc([C@@H](C)Nc2ccccc2C(=O)O)c2nc(N3CCOCC3)cc(=O)n2c1` : 12

Measured inhibition of `O=C1COc2nccc(-c3ccccc3F)c2CN1Cc1cc(C(F)(F)F)cc(C(F)(F)F)c1` : -4.66

Measured inhibition of `Cc1cc(OCCC(C)(C)O)cc(C)c1-c1ccc(F)c2c1CC[C@H]2Oc1ccc2c(c1)OC[C@H]2CC(=O)O` : 78.7

Measured inhibition of CC(C)c1c(CN(C)C(C)Cc2ccccc2)n(C)n(-c2ccccc2)c1=O (stereo not drawn) : 21.4

Measured inhibition of `CCc1cc(C(C)=O)c(O)cc1OCCCCCC(C)(C)c1nn[nH]n1` : 16.1

Measured inhibition of `Cn1c(=O)n(CCCO)c(=O)c2c1nc(Oc1cccc(OC(F)(F)F)c1)n2Cc1ccc(Cl)cc1` : -1.67

Measured inhibition of `O=C1c2ccc(Nc3ccc(F)cc3F)cc2CCc2ccc(OC[C@H](O)CO)cc21` : -9.94

Measured inhibition of `O=C(Nc1ccc(Cl)nc1)c1ccc(Cl)cc1` : 6.76

Measured inhibition of `Cc1nnsc1C(=O)Nc1ccc(-n2nc(C(F)(F)F)cc2C(F)(F)F)cc1` : 15.7

Measured inhibition of `COc1cccc2c1c(NS(=O)(=O)c1ccc(Cl)s1)nn2Cc1cccc(CNC(=O)C(C)(C)O)c1` : -5.21

Measured inhibition of `O=c1c(Br)ccc2n1C[C@@H]1CNC[C@H]2C1` : -1.3

Measured inhibition of `CC(F)(F)CN1CCOc2c(nn(-c3ccccc3Cl)c2-c2ccc(Cl)cc2)C1=O` : 1.85

Measured inhibition of `COc1cnccc1Nc1nc(-c2nn(Cc3c(F)cc(OCCO)cc3F)c3ccccc23)ncc1OC` : 14.4

Measured inhibition of `COc1ccc(OC)c(-c2ccc(NC(=O)c3ccncc3F)cc2)c1` : 1.6

---

inhibition values by entry
# measured-on: UniProtKB Q96FI4
# Sequence (Q96FI4 whole entry): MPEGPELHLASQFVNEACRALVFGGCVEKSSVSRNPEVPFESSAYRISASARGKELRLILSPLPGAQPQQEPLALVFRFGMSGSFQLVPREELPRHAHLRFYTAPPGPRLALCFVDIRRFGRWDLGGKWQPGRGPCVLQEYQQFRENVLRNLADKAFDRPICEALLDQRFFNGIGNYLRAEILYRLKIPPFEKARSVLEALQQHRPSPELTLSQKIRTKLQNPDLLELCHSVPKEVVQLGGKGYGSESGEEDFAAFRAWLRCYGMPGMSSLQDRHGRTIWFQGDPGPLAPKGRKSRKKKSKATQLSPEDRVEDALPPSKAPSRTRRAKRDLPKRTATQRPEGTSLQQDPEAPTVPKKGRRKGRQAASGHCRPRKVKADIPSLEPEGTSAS
# condition-context: Compound Concentration 10.0 uM, Hit No
# Description: Inhibition of NEIL1 by quantifying inhibition of NEIL1-mediated cleavage and dissociation of quenched duplex DNA oligonucleotides, measured as fluorescence at 594 nm.
Express it in %; write the number only.

Some solved cases for reference:
> print(dat)
                                   compound  result.value
1    CN1CCc2cc(Cl)c(O)cc2[C@@H](c2ccccc2)C1         -6.51
2  O=C(Cc1ccc(Cl)c(Cl)c1)N1CCCC[C@H]1CN1CCCC1         -3.91
3   CCCn1c(=O)c2[nH]c(C3CCCC3)nc2n(CCC)c1=O         -2.28
4  C=CCN1C[C@H](C)N([C@H](c2ccc(C(=O)N(CC)CC)cc2)c2cccc(O)c2)C[C@H]1C         -6.58
5  CC1(C)CC(CN2CCC(F)(CNC(=O)c3cc(Cl)cc(Cl)c3)CC2)CCO1 (configuration not stated)          6.23

Measured inhibition of `N#CC1(c2ccccn2)CCN(Cc2cc(C(=O)N3CCCC3)c(=O)n3ccccc23)CC1` : -0.745

Measured inhibition of `COc1ccccc1N1CCN(CCCCNC(=O)c2ccc3ccccc3c2)CC1` : 4.99

Measured inhibition of `CC(C)(C)c1ccc(NC(=O)N2CCN(c3ncccc3Cl)CC2)cc1` : -1.77

Measured inhibition of `CC(=O)Nc1ccc(-c2cc(-c3ccccc3)nc3cc(C(=O)NCCCn4ccnc4)nn23)cc1` : -3.92

Measured inhibition of `CCC(C)(C)/N=C(\NC#N)Nc1cccnc1` : 1.64

Measured inhibition of `CC(C)(C#Cc1ccc(NC(=O)COc2ccccc2C(=O)c2ccccc2)c(Cl)c1)C(=O)O` : -9.68

Measured inhibition of `Cc1cc([C@@H](C)Nc2ccccc2C(=O)O)c2nc(N3CCOCC3)cc(=O)n2c1` : 0.798

Measured inhibition of `CCOC(=O)c1cc(C#N)c(N2CCC(C(=O)NS(=O)(=O)Cc3ccccc3)CC2)nc1C` : -0.649

Measured inhibition of CCCCCC(O)/C=C/[C@H]1C(=O)CC(O)C1C/C=C\CCCC(=O)O (some centres not stated) : 5.49
